Origin of measurements: ChEMBL document CHEMBL1201862

Biological target: Heat shock factor protein 1 (Mus musculus, UniProt P38532)
Sequence (P38532 whole entry): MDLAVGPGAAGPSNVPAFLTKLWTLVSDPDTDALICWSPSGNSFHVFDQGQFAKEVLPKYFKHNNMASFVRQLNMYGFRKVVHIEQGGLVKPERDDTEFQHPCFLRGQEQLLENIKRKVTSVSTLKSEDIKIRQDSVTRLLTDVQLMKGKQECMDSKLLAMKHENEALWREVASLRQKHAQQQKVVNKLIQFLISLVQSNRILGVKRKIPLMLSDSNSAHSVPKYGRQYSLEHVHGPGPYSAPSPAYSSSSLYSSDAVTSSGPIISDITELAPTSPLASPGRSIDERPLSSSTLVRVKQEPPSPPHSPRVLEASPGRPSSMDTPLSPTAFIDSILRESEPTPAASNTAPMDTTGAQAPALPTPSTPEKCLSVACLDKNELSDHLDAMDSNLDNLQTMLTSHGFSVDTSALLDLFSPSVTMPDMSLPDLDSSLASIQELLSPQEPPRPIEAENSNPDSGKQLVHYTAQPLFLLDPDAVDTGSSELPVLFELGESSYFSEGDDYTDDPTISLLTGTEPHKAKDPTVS
Assay: enhancement of HSF1-driven luciferase signal – cell-based, NIH3T3, luminescence, dose retest, confirmation (AID 435004);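 also: stress induced by proteasome inhibitor MG132 added 30 min after compound; luciferase reporter driven by HSF1 response element in NIH3T3 cells; actives raise luminescence as potentiators of the MG132 stress response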
Assay type: functional
Activity calls are given as the source filed them.
Output constraint: value belongs to 1 = active, -1 = inactive

Completed entries (count: 6):
COc1ccc(N(CC(=O)N2CCc3ccccc32)S(=O)(=O)c2c(C)noc2C)cc1 | 1
COC(=O)c1ccc(CSc2nnnn2-c2ccc(C)cc2C)o1 | -1
Cc1nc(N2CCC(C)CC2)c2c(C)c(C(=O)Nc3cccc(C(F)(F)F)c3)sc2n1 | -1
COc1ccc(-c2coc3cc4oc(=O)c(CC(=O)O)c(C)c4cc23)cc1 | -1
Cc1nn(C)c(Oc2ccccc2)c1CCNS(=O)(=O)c1ccc(Cl)cc1 | -1
O=C(NCCc1ccccc1)N1c2ccccc2Sc2ccccc21 | -1

Any idea what this test logged for CCC(C)(C)NC(=O)C(c1ccc(C)cc1)N(Cc1cccs1)C(=O)c1ccc2c(c1)OCCO2 (stereo not drawn) ?
-1

Record: "O=C(Oc1ccc2c(c1)OCO2)c1cc2c(s1)CCC2"
-1

Record: "ClC(Cl)c1nnc(-c2ccccc2)c(-c2c[nH]c3ccccc23)n1"
1

Record: COc1ccc(C(C[N+](=O)[O-])C2(c3ccc(OC)c(OC)c3)C(=O)c3ccccc3C2=O)cc1 (stereo not drawn)
1

Record: "Cc1cc(C)cc(-n2c3nc4ccccc4nc3c3c(=O)n(Cc4ccco4)cnc32)c1"
-1

Record: "C/C(Cn1cnc([N+](=O)[O-])n1)=N\NC(=O)c1ccccc1F"
-1

---

Property: IC50; scope: individual compounds
Molecular target: Sentrin-specific protease 7 (Homo sapiens, UniProt Q9BQF6);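 also: Luminescence-based dose-response confirmation of ultra-high-throughput screening hits, measuring inhibition of SENP7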
Sequence (Q9BQF6 whole entry): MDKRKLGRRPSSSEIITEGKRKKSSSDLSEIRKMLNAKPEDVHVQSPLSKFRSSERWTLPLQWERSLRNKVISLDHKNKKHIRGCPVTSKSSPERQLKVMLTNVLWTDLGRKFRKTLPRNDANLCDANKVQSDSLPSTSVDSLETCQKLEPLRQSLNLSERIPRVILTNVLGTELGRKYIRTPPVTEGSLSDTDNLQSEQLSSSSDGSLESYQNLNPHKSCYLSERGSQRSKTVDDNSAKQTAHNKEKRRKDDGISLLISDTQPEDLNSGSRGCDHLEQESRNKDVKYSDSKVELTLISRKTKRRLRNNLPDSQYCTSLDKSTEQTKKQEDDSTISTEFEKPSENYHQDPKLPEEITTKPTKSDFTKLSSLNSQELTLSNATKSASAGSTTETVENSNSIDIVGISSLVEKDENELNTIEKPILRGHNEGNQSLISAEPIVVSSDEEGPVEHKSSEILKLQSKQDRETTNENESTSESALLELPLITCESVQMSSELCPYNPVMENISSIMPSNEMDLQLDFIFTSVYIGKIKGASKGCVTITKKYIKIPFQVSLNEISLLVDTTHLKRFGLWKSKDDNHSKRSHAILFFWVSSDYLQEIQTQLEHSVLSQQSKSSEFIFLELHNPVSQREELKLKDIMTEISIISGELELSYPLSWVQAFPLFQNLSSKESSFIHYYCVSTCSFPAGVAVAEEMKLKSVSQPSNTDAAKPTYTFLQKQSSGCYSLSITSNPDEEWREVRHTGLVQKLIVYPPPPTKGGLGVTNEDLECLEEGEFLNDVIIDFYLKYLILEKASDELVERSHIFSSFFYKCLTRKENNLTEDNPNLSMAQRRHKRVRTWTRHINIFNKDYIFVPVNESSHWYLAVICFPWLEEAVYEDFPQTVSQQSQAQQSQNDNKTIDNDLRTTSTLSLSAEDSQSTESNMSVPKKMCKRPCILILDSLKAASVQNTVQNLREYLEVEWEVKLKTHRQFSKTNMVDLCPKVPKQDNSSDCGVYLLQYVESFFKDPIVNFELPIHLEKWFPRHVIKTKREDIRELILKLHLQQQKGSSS
Assay type: functional
Activity calls are given as the source filed them.

CC(=O)NC1=C(N(C)C2CCS(=O)(=O)C2)C(=O)c2ccccc2C1=O (stereo unspecified) | 13 µM (active)
O=C(Nc1cccc(F)c1)c1ccc(-c2ccccc2Cl)o1 | 7.07 µM (active)
COc1ccc(-c2nnc(SCc3ccccc3F)o2)cc1 | 4.23 µM (active)
Cc1cc(O)c(-c2cc(C(=O)Nc3cccnc3)[nH]n2)cc1C | 3.61 µM (active)
c1ccc(Nc2nnc(-c3cccc4ccccc34)o2)cc1 | > 100 µM (inactive)

Please look at the following compound next.
Could you share which IC50 value was measured for "Cc1ccnc2ccc(-c3nc4ccccc4o3)cc12" ?
2.2 µM (active)
